- Tested on: SW-620 colon
- experimental.protocol: NCI tumour cell line growth inhibition, 48 h
measured.quantity: TGI (µM)
Numbers only, in µM.

compound.smiles	system.under.test	unit.label	TGI
COc1cc2c(cc1O)CC[C@@H]1[C@@H]2CC[C@]2(C)[C@@H](OCCN(C)C)CC[C@@H]12	SW-620 colon	µM	0.763
O=C(C[n+]1ccc2ccccc2c1)c1ccc2ccc3ccccc3c2c1	SW-620 colon	µM	13.1

Continue with the molecule presented below.
What does the record list as TGI for CCn1cnc(C[C@H](NC(=O)[C@@H](NC(=O)Nc2cc(C(F)(F)F)cc(C(F)(F)F)c2)C(C)C)C(=O)OC)c1 ?
4.01

---

- Tested on: SR leukemia
- experimental.protocol: NCI tumour cell line growth inhibition, 48 h; in the data active = GI50 below about 0.43 µM; inactive = the rest
Hello, when you answer, please use one of the following outcomes: active, inactive

compound	assigned.class
C=CCC1(O)c2ccccc2C(=O)c2c(NCCN(CC(=O)OCC)CC(=O)OCC)cccc21 (stereo not drawn)	inactive

Could you kindly confirm the outcome this assay logged for CC1(N)CCN(c2cccnc2NC(=O)c2nc(-c3ncccc3C(F)(F)F)cnc2N)CC1 ?
inactive

Please state the recorded outcome for this compound: Cc1ccc(-c2nc(C#N)c(S(=O)(=O)n3nc(C)cc3N)o2)cc1
inactive

Hi team, can someone confirm the assay call for COc1ccc(C(=O)/C=C/c2cccc([N+](=O)[O-])c2)c(OC)c1 ?
inactive

Which outcome was entered for the compound O=C(Nc1cccc(-n2cc(-c3ccncc3)c(-c3cc(O)cc(Cl)c3)n2)c1)Nc1ccc(Cl)c(C(F)(F)F)c1 in this test?
inactive

Fill in: this test's call for CCCCC[C@H]1C/C=C2/C(=O)C=C[C@@H]2C/C=C\CCCC(=O)O[C@@H](CCCCC)C/C=C2/C(=O)C=C[C@@H]2C/C=C\CCCC(=O)O1 is ___
active

// outcome(item) with item = CNCCCn1c2c(c3ccc([N+](=O)[O-])cc3c1=O)C(=O)c1cc(OC)cnc1-2
active

Can you look up the reported call for COC(=O)[C@@]12OC[C@]34[C@H]([C@@H](O)[C@@H]1O)[C@@]1(C)[C@H](O)C(=O)C=C(C)[C@@H]1C[C@H]3OC(=O)C(OC(C)=O)[C@@H]24 (stereo partly drawn) for me?
active

---

- System: HL-60(TB) leukemia
- experimental.protocol: NCI tumour cell line growth inhibition, 48 h; in the data active means GI50 below about 0.43 µM; inactive means the rest
One label from this list, please: YES (active), NO (inactive)

Illustrative cases are given below, each with its answer.
molecule	system.under.test	assigned.class
C=CCC1(O)c2ccccc2C(=O)c2c(NCCN(CC(=O)OCC)CC(=O)OCC)cccc21 (stereo unspecified)	HL-60(TB) leukemia	NO
CCCCC[C@H]1C/C=C2/C(=O)C=C[C@@H]2C/C=C\CCCC(=O)O[C@@H](CCCCC)C/C=C2/C(=O)C=C[C@@H]2C/C=C\CCCC(=O)O1	HL-60(TB) leukemia	YES
COc1cccc2c1ccc1nc3cccc(C(=O)N[C@H](C)CN(C)C)c3nc12	HL-60(TB) leukemia	YES
COC1=CC(c2ccc[nH]2)=N/C1=C\c1[nH]c(C)c(C(=O)CCCCC(=O)NC(C)(C)C)c1C	HL-60(TB) leukemia	NO
CCn1cnc(C[C@H](NC(=O)[C@@H](NC(=O)Nc2cc(C(F)(F)F)cc(C(F)(F)F)c2)C(C)C)C(=O)OC)c1	HL-60(TB) leukemia	NO

Note: attention shifts to another entry.
How was Cc1cc(O)c(C2=NN(c3ccc(S(N)(=O)=O)cc3)C(c3ccccc3Cl)C2)cc1Cl (stereo unspecified) classified in this test?
NO

FYI, the data here is from PubChem BioAssay (NCI).
